# pEC50 values compiled below
# TEST TARGET: Kir3.1/Kir3.2 (Homo sapiens, UniProt P48051+P48549)
# Sequence (P48549 whole entry): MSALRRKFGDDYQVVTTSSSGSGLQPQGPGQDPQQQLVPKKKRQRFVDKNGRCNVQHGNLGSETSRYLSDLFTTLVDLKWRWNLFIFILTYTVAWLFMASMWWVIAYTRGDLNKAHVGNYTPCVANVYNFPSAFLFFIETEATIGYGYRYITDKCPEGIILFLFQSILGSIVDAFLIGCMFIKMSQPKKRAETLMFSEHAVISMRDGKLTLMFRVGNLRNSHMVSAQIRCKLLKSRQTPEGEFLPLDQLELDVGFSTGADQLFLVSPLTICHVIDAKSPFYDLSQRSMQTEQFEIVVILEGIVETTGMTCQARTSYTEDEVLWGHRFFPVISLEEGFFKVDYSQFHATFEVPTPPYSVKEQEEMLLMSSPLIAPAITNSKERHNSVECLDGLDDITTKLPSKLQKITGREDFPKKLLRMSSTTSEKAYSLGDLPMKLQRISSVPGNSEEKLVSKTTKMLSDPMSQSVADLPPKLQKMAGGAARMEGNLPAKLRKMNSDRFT
# Sequence (P48051 whole entry): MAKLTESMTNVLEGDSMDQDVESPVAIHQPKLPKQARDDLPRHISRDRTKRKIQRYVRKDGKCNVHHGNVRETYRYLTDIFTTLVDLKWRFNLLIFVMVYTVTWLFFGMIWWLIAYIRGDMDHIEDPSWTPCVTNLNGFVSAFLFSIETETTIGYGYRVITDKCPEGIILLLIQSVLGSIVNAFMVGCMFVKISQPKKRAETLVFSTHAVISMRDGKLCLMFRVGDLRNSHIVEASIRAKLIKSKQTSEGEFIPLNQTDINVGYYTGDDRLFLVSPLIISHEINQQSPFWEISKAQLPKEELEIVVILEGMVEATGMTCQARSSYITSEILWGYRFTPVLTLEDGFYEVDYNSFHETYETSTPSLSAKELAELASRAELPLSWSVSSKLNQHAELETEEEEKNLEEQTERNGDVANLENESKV
# METHOD DESCRIPTION: Activation of human GIRK1/2 expressed in HEK293 cells co-expressing rat mGlu8 by thallium flux assay
Just the number, please; pEC50 means minus log10 of the concentration in mol/L.

Take a look at these entries with their results.
{"MOLECULE SMILES": "Cc1cc(NC(=O)Cn2ccc(-c3ccccc3)n2)n(C2CCCCC2)n1", "pEC50": 6.29}
{"MOLECULE SMILES": "Cc1cc(NC(=O)Cc2ccc(-c3ccccc3)cn2)n(C2CCCCC2)n1", "pEC50": 5.82}

What value of measured pEC50 is listed for "Cc1cc(NC(=O)Cn2nnc(-c3ccc(F)c(F)c3)n2)n(C2CCCCC2)n1" ?
6.94

What value of measured pEC50 is listed for "Cc1cc(NC(=O)Cn2nnc(-c3ccc(Cl)c(Cl)c3)n2)n(C2CCCCC2)n1" ?
5.91

What value of measured pEC50 is listed for "COc1cccc(-c2nnn(CC(=O)Nc3cc(C)nn3C3CCCCC3)n2)c1" ?
6.93

What value of measured pEC50 is listed for "Cc1cc(NC(=S)Cn2nnc(-c3ccccc3)n2)n(C2CCCCC2)n1" ?
6.21
